# TGT: LAP2, Q96RT1
# Sequence (Q96RT1 other isoform, or with tags, fused parts or gaps): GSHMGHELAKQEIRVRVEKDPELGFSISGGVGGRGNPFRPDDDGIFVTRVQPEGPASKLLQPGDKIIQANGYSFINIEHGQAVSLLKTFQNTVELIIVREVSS
# ASSAY_TEXT: holdup assay
# Set-up: key: below the threshold = too weak to quantify, mostly under pKd 3.1 to 4
# TEST_PARAMETERS: plain residues with an end cap or a label only (N-terminal biotin on a linker: ado-ado)
ASSAY_METRIC: pKd

INSERT INTO assay_data (binder, reported_value) VALUES
  ('THREVKFTSL [CD46, P15529]', 'below the threshold'),
  ('VYEVPVETKF [SLC26A3, P40879]', 'below the threshold'),
  ('VKQYADVEGF [HNRNPK, P61978;P61978-2]', 'below the threshold'),
  ('KAEEKPPSKV [SCN4B, Q8IWT1]', 3.89),
  ('MQILSKPEFI [NPSR1, Q6W5P4]', 'below the threshold'),
  ('PGKKPEDSRV [SLCO2B1, O94956]', 3.52),
  ('RDYTQSSSSL [GRM5, P41594]', 'below the threshold'),
  ('GDSSRKEYFI [GYPC, P04921]', 3.62);
